Tested on: Mycobacterium tuberculosis
experimentalProtocol: Antimycobacterial activity against Mycobacterium tuberculosis H37Rv ATCC 27294 after 7 days by microplate alamar blue assay
Assay type: functional
conditionDetails: Mycobacterium tuberculosis, H37Rv ATCC 27294, 168 h
measurementName: log10 of MIC90 (log10 of the value in µM)
Short version: log10 scale, MIC90, µM.

{"compound": "CN[C@@H]1[C@H](O[C@H]2[C@H](O[C@H]3[C@H](O)[C@@H](O)[C@H](N=C(N)N)[C@@H](O)[C@@H]3N=C(N)N)O[C@@H](C)[C@]2(O)C=O)O[C@@H](CO)[C@H](O)[C@H]1O", "log10 of MIC90": -0.40}
{"compound": "NC[C@H]1O[C@H](O[C@H]2[C@H](O)[C@@H](O[C@H]3O[C@H](CO)[C@@H](O)[C@H](N)[C@H]3O)[C@H](N)C[C@@H]2N)[C@H](O)[C@@H](O)[C@@H]1O", "log10 of MIC90": 0.49}

Log: Mycobacterium tuberculosis, compound CO[C@H]1/C=C/O[C@@]2(C)Oc3c(C)c(O)c4c(O)c(c(/C=N/N5CCN(C)CC5)c(O)c4c3C2=O)NC(=O)/C(C)=C\C=C\[C@H](C)[C@H](O)[C@@H](C)[C@@H](O)[C@@H](C)[C@H](OC(C)=O)[C@@H]1C , log10 of MIC90 = -1.30

Log: Mycobacterium tuberculosis, compound C=C[C@H]1CN2CC[C@H]1C[C@H]2[C@H](O)c1ccnc2ccc(OC)cc12 , log10 of MIC90 = 2.08

Log: Mycobacterium tuberculosis, compound O[C@@H](c1cc(C(F)(F)F)nc2c(C(F)(F)F)cccc12)[C@H]1CCCCN1 (relative stereo) [(S,R)-MEFLOQUINE] , log10 of MIC90 = 1.00

---

System: Mycobacterium tuberculosis
experimentalProtocol: Antimycobacterial activity against Mycobacterium tuberculosis H37Rv ATCC 27294 after 7 days by microplate alamar blue assay
Type: functional
conditionDetails: Mycobacterium tuberculosis, H37Rv ATCC 27294, 168 h
Recorded measurements of MIC90, one per entry

{"compound": "O=[N+]([O-])c1cn2c(n1)OC[C@@H](OCc1ccc(OC(F)(F)F)cc1)C2 [PRETOMANID]", "valueReported": "0.12 µM"}
{"compound": "NNC(=O)c1ccncc1 [ISONIAZID]", "valueReported": "0.23 µM"}
{"compound": "CCN(CC)C(c1ccnc2ccc(OC)cc12)c1nnnn1C(C)(C)C (stereo not given)", "valueReported": "> 128 µM"}
{"compound": "COc1ccc2nccc(C(c3nnnn3C(C)(C)C)N3CCN(C)CC3)c2c1 (stereo not given)", "valueReported": "> 128 µM"}
{"compound": "CN(C)C(c1cc(C(F)(F)F)nc2c(C(F)(F)F)cccc12)c1nnnn1C(C)(C)C (stereo not given)", "valueReported": "> 160 µM"}
{"compound": "CCN(CC)C(c1cc(C(F)(F)F)nc2c(C(F)(F)F)cccc12)c1nnnn1C(C)(C)C (stereo not given)", "valueReported": "> 160 µM"}

Data point: COc1ccc2nccc(C(c3nnnn3C(C)(C)C)N(C)C)c2c1 (stereo not given) ; MIC90 = > 128 µM

Data point: COc1ccc2nccc(C(c3nnnn3C(C)(C)C)N3CCCCC3)c2c1 (stereo not given) ; MIC90 = 92.5 µM

Data point: COc1ccc2nccc(C(c3nnnn3C(C)(C)C)N3CCCC3)c2c1 (stereo not given) ; MIC90 = > 128 µM

Data point: COc1ccc2nccc(C(c3nnn[nH]3)N3CCOCC3)c2c1 (stereo not given) ; MIC90 = > 128 µM
